biological target: Protein deacetylase HDAC6 (Mus musculus); experiment: Inhibition of recombinant mouse HDAC6 expressed in HEK293T cells co-expressing mouse HDA2 using Ac-KGLGK(Ac)-MCA as substrate after 30 mins in presence of DTT by fluorescence assay
Sequence (Q9Z2V5 whole entry): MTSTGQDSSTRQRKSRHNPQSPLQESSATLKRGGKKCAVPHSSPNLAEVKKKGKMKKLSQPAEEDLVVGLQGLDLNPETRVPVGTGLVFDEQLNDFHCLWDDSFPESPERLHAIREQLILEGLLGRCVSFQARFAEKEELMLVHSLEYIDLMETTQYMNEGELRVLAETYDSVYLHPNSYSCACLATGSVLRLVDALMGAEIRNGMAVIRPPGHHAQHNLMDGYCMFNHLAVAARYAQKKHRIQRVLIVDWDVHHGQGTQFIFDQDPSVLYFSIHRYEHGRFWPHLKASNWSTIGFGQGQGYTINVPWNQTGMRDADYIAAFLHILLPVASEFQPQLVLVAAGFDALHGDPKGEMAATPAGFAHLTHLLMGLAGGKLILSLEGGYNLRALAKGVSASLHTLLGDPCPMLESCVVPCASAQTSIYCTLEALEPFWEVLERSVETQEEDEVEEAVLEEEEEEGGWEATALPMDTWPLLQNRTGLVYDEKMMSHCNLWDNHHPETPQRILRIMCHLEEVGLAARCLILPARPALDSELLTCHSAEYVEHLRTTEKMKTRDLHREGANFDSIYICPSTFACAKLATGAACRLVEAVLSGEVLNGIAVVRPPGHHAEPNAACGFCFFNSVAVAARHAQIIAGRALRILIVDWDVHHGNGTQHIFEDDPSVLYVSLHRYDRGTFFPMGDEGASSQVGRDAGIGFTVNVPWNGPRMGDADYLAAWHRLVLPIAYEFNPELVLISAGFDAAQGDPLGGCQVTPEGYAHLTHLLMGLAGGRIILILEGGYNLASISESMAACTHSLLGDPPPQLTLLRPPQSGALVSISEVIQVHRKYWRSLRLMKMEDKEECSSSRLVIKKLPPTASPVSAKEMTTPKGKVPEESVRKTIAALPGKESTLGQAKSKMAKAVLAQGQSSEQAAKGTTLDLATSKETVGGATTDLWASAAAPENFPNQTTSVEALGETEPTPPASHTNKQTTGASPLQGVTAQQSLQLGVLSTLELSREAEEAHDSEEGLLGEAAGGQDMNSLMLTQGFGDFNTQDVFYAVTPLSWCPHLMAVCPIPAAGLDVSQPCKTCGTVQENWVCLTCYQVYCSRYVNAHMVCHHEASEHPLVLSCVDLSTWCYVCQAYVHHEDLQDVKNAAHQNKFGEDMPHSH
Value type: IC50 (nM)

// worked examples, IC50 included
INPUT: What does the record list as IC50 for Cc1cn([C@H]2C[C@H](C3(c4ccc(NC(=O)CCCCCC(=O)NO)cc4)SCCCS3)[C@@H](CO[Si](C)(C)C(C)(C)C)O2)c(=O)[nH]c1=O ?
OUTPUT: 110

INPUT: What does the record list as IC50 for Cc1cn([C@H]2C[C@H](C3(c4ccc(NC(=O)CCCCC(=O)NO)cc4)SCCCS3)[C@@H](CO[Si](C)(C)C(C)(C)C)O2)c(=O)[nH]c1=O ?
OUTPUT: 560

(P) Cc1cn([C@@H]2C[C@H](C3(c4ccc(NC(=O)CCCCC(=O)NO)cc4)SCCCS3)[C@@H](CO[Si](C)(C)C(C)(C)C)O2)c(=O)[nH]c1=O
(Q) Cc1cn([C@@H]2C[C@H](C3(c4ccc(NC(=O)CCCCCC(=O)NO)cc4)SCCCS3)[C@@H](CO[Si](C)(C)C(C)(C)C)O2)c(=O)[nH]c1=O
INPUT: Problem: Given the entries P and Q , determine which has the lower reported IC50. To answer, give the label that identifies your chosen option.
OUTPUT: Q

###

tested on: DU-145; experiment: Growth inhibition of human DU145 cells after 48 hrs by sulforhodamine B-based colorimetric assay; format: functional, cell-based; conditions: DU-145, 48 h
Value type: pIC50
For clarity, pIC50 is expressed as the negative log10 of concentration in mol/L.

INPUT: What does the record list as pIC50 for Cc1cn([C@H]2C[C@H](C3(c4ccc(NC(=O)CCCCCCC(=O)O)cc4)SCCCS3)[C@@H](CO[Si](C)(C)C(C)(C)C)O2)c(=O)[nH]c1=O ?
OUTPUT: 4.81

###

Measurement record for DNA topoisomerase 2-alpha (Homo sapiens, UniProt P11388); quantity recorded: pIC50.
pIC50: −log10 of the molar value.
Value type: pIC50

(a) CC(/C=C/C(=O)NO)=C\C(C)C(=O)c1ccc(C2([C@H]3CC(=O)O[C@@H]3CO[Si](C)(C)C(C)(C)C)SCCCS2)cc1 (some centres not stated)
(b) CC(C)(C)[Si](C)(C)OC[C@H]1OC(=O)C[C@@H]1C1(c2ccccc2)SCCCS1
INPUT: Problem: Given the entries a and b , determine which has the lower reported pIC50. To answer, give the label that identifies your chosen option.
OUTPUT: b

###

molecular target: UniProtKB Q13547; experiment: Inhibition of recombinant human HDAC1 expressed in HEK293T cells using Ac-KGLGK(Ac)-MCA as substrate after 30 mins in presence of DTT by fluorescence assay
Sequence (Q13547 whole entry): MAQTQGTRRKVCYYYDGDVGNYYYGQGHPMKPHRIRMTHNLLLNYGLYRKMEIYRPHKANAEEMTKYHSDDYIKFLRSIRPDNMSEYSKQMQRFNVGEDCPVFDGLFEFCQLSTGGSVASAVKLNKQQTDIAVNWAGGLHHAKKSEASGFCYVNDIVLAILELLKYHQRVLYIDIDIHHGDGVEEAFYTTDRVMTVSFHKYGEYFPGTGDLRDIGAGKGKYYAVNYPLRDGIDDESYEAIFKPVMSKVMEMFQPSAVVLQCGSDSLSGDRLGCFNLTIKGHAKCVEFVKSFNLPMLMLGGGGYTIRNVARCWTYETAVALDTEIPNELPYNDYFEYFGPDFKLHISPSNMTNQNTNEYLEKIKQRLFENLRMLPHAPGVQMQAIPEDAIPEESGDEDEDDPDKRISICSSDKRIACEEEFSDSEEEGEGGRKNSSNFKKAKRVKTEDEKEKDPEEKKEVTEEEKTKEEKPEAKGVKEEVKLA
Value type: IC50 (µM)

(P) Cc1cn([C@@H]2C[C@H](C3(c4ccc(NC(=O)CCCCCC(=O)NO)cc4)SCCCS3)[C@@H](CO[Si](C)(C)C(C)(C)C)O2)c(=O)[nH]c1=O
(Q) Cc1cn([C@@H]2C[C@H](C3(c4ccc(NC(=O)CCCCCCC(=O)NO)cc4)SCCCS3)[C@@H](CO[Si](C)(C)C(C)(C)C)O2)c(=O)[nH]c1=O
INPUT: Form field 'greater IC50' accepts P or Q ; which applies? To answer, give the label that identifies your chosen option.
OUTPUT: Q
(Q: 1.1 µM, P: 0.59 µM)
